# measurement_description: Primary fluorescence-based thiol-reactive (MSTI) qHTS assay for identification of artifact compounds. (AID 1845221); also: nearly all actives have a fitted effect of over 65% in size
# reported_conditions: MSTI thiol-reactivity probe, 1 h; series mostly up to 53.8 µM
# Description: PI: Alexander Tropsha Ph.D. UNC Eshelman School of Pharmacy University of North Carolina, Chapel Hill, North Carolina Hits from high-throughput screening (HTS) of chemical libraries are often false positives due to their interference with the assay detection technology. […] Using these curated datasets, we developed and validated several Quantitative Structure-Interference Relationship (QSIR) models to predict nuisance behavior. […]
Records with an inconclusive call do not appear. Activity calls are given as the source filed them. Calls follow the shape of the dose curve; as a rule, active = well fitted inhibition curve with a large enough effect; inconclusive = small, poorly fitted or top-dose-only effect; inactive = no such curve, though single readings can be large or run the other way.
Please reply with one of these outcomes: t = active, f = inactive

(Q) # outcome recorded in this test, key = CC(C)CC(=O)O[C@@H]1OC=C(CO[C@@H]2O[C@H](CO[C@@H]3O[C@H](CO)[C@@H](O)[C@H](O)[C@H]3O)[C@@H](O)[C@H](O)[C@H]2O)[C@H]2C[C@H](O)[C@@H](CO)[C@@H]12
(A) f

(Q) # outcome recorded in this test, key = CN1CCC(c2c[nH]c3ccc(NC(=O)c4ccc(F)cc4)cc23)CC1
(A) f

(Q) # outcome recorded in this test, key = CC1(C)O[C@@]2(C)CC[C@@H]1C[C@@H]2OC1OC(CO)C(O)C(O)C1O (stereo not given in full)
(A) t

(Q) # outcome recorded in this test, key = COc1cc(CC(COC2OC(CO)C(O)C(O)C2O)c2cc(/C=C/CO)cc(OC)c2O)ccc1O (stereo not given)
(A) t

(Q) # outcome recorded in this test, key = CC(C)(O)C1CC=C(C(=O)OCC2OC(Oc3c(O)cc(C(=O)O)cc3O)C(O)C(O)C2O)CC1 (stereo not given)
(A) t

(Q) # outcome recorded in this test, key = CC(C)CNC(=O)/C=C/CCCCc1ccc2c(c1)OCO2
(A) f

(Q) # outcome recorded in this test, key = CC(=O)C1CCC2(C)C3=C(CCC12C)C1(C)CCC(=O)C(C)(C)C1CC3 (stereo not given)
(A) f

(Q) # outcome recorded in this test, key = CCNC(=O)[C@@H]1CCCN1C(=O)[C@H](CCCN=C(N)N)NC(=O)[C@H](CC(C)C)NC(=O)[C@@H](C)NC(=O)[C@H](Cc1ccc(O)cc1)NC(=O)[C@H](CO)NC(=O)[C@H](Cc1c[nH]c2ccccc12)NC(=O)[C@H](Cc1cnc[nH]1)NC(=O)[C@@H]1CCC(=O)N1
(A) f

(Q) # outcome recorded in this test, key = CC1(C)CC2C(O)C3=C(CC(C)(O)C2C1)C(=O)OC3O (stereo not given)
(A) f

(Q) # outcome recorded in this test, key = C[C@@H]1C(=O)O[C@H]2[C@H]1CC[C@@]1(C)C(=O)C=C[C@](C)(O)[C@H]21
(A) t

(Q) # outcome recorded in this test, key = COc1cc(/C=C/C(=O)OC2CC(OC(C)=O)C(OC(C)=O)C3C2CCC2C(=O)OC(c4ccoc4)CC23C)ccc1O[C@@H]1O[C@H](CO)[C@@H](O)[C@H](O)[C@H]1O (stereo not given in full)
(A) f

(Q) # outcome recorded in this test, key = C=CC(C)(C)C1(CC2NC(=O)C3CCCN3C2=O)C(=O)Nc2cc3c(cc21)C=CC(C)(C)O3 (stereo not given)
(A) f

(Q) # outcome recorded in this test, key = O=C1C[C@@H](c2ccc(O)cc2)Oc2cc(O)ccc21
(A) f

(Q) # outcome recorded in this test, key = COC(=O)c1ccc(O[C@@H]2O[C@H](CO)[C@@H](O)[C@H](O)[C@H]2O)c(OC)c1
(A) t

(Q) # outcome recorded in this test, key = CC1(C)CC[C@]2(C(=O)O[C@@H]3O[C@H](CO)[C@@H](O)[C@H](O)[C@H]3O)CC[C@]3(C)C(=CCC4[C@@]5(C)C[C@@H](O)[C@H](O)C(CO)(CO)C5CC[C@]43C)C2[C@@H]1O (stereo not given in full)
(A) f

====

# Test system: JCK
# measurement_description: qHTS profiling for inhibitors of Plasmodium falciparum proliferation (AID 504749); also: nearly all actives have a fitted effect of over 60% in size
# reported_conditions: P. falciparum in erythrocytes, SYBR Green DNA, 72 h; series mostly up to 28.7 µM
Results filed as inconclusive are left out. Active and inactive are the calls of the source. Calls follow the shape of the dose curve; as a rule, active = well fitted inhibition curve with a large enough effect; inconclusive = small, poorly fitted or top-dose-only effect; inactive = flat fitted curve, though single readings scatter.
Please reply with one of these outcomes: active, inactive

(Q) # outcome recorded in this test, key = CC1(C)C(C=C(Cl)Cl)C1C(=O)OCc1cccc(Oc2ccccc2)c1 (configuration not stated)
(A) inactive

(Q) # outcome recorded in this test, key = CCOC(C)=O
(A) inactive

(Q) # outcome recorded in this test, key = Cc1ccccc1
(A) inactive

(Q) # outcome recorded in this test, key = C#CCOc1ccc2c(C)cc(=O)oc2c1
(A) inactive

(Q) # outcome recorded in this test, key = CCCCC(C)(O)C/C=C/[C@H]1[C@H](O)CC(=O)[C@@H]1CCCCCCC(=O)OC (some centres not stated)
(A) inactive

(Q) # outcome recorded in this test, key = CCN(CC)Cc1cc(Nc2ccnc3cc(Cl)ccc23)ccc1O
(A) active

(Q) # outcome recorded in this test, key = CCC(=O)NCCC1CCc2ccc3c(c21)CCO3 (configuration not stated)
(A) inactive

(Q) # outcome recorded in this test, key = CC(C)=O
(A) inactive

(Q) # outcome recorded in this test, key = COc1ccc2c3c1O[C@H]1C[C@@H](O)C=C[C@@]31CCN(C)C2
(A) inactive

(Q) # outcome recorded in this test, key = CCOC(=O)C1=C(C)NC(C)=C(C(=O)OCC)C1c1ccccc1C=CC(=O)OC(C)(C)C
(A) inactive

(Q) # outcome recorded in this test, key = CC(C)(C)C(=O)OCOC(=O)[C@@H]1N2C(=O)[C@@H](N=CN3CCCCCC3)[C@H]2SC1(C)C
(A) inactive

(Q) # outcome recorded in this test, key = NC(=O)c1ncn(C2OC(CO)C(O)C2O)n1 (configuration not stated)
(A) inactive

(Q) # outcome recorded in this test, key = Nc1ncnc2c1ncn2[C@@H]1O[C@H](COP(=O)(O)OP(=O)(O)OP(=O)(O)O)[C@@H](O)[C@H]1O
(A) inactive

(Q) # outcome recorded in this test, key = C[C@@H]1CCC2[C@@H](C)[C@@H](O)O[C@@H]3O[C@@]4(C)CC[C@@H]1[C@@]23OO4 (some centres not stated)
(A) active

(Q) # outcome recorded in this test, key = CCNC(=O)[C@@H]1CCCN1C(=O)[C@H](CCCN=C(N)N)NC(=O)[C@H](CC(C)C)NC(=O)[C@@H](Cc1c[nH]c2ccccc12)NC(=O)[C@H](Cc1ccc(O)cc1)NC(=O)[C@H](CO)NC(=O)[C@H](Cc1c[nH]c2ccccc12)NC(=O)[C@H](Cc1cnc[nH]1)NC(=O)[C@@H]1CCC(=O)N1
(A) active

(Q) # outcome recorded in this test, key = CC(NNC(=O)c1ccccc1)c1ccccc1 (configuration not stated)
(A) inactive

(Q) # outcome recorded in this test, key = C#C[C@]1(O)CC[C@H]2[C@@H]3CCC4=CCCC[C@@H]4[C@H]3C(=C)C[C@@]21CC
(A) inactive

(Q) # outcome recorded in this test, key = CCCCC/C=C\C/C=C\CCCCCCCC(=O)O
(A) inactive

(Q) # outcome recorded in this test, key = O=C1C(=O)c2ncccc2-c2cccnc21
(A) active

(Q) # outcome recorded in this test, key = CC(Cc1ccc(O)c(O)c1)C(C)Cc1ccc(O)c(O)c1 (configuration not stated)
(A) inactive

(Q) # outcome recorded in this test, key = CC[N+](C)(C)Cc1ccccc1Br
(A) inactive

(Q) # outcome recorded in this test, key = CCCCCCCC(=O)O
(A) inactive

====

# Test system: CP268
# measurement_description: qHTS profiling for inhibitors of Plasmodium falciparum proliferation (AID 504749); also: nearly all actives have a fitted effect of over 60% in size
# reported_conditions: P. falciparum in erythrocytes, SYBR Green DNA, 72 h; series mostly up to 28.7 µM
Inconclusive results are not listed. Activity calls are given as the source filed them. Calls come from the whole dose curve; as a rule, active = well fitted inhibition curve with a large enough effect; inconclusive = small, poorly fitted or top-dose-only effect; inactive = flat fitted curve, though single readings scatter.
Please reply with one of these outcomes: active, inactive

(Q) # outcome recorded in this test, key = COC(F)(F)C(Cl)Cl
(A) inactive

(Q) # outcome recorded in this test, key = COC(=O)[C@H]1[C@H]2C[C@@H]3c4[nH]c5ccccc5c4CCN3C[C@H]2C[C@@H](OC(=O)c2cc(OC)c(OC)c(OC)c2)[C@@H]1OC
(A) active

(Q) # outcome recorded in this test, key = O=CCCCC=O
(A) inactive

(Q) # outcome recorded in this test, key = CCCCCCCC(=O)O
(A) inactive

(Q) # outcome recorded in this test, key = CCOC(C)=O
(A) inactive

(Q) # outcome recorded in this test, key = CCN(CC)Cc1cc(Nc2ccnc3cc(Cl)ccc23)ccc1O
(A) active

(Q) # outcome recorded in this test, key = CC[N+](C)(C)Cc1ccccc1Br
(A) inactive

(Q) # outcome recorded in this test, key = CC(C(=O)O)c1ccc(N2Cc3ccccc3C2=O)cc1 (centres undefined)
(A) inactive

(Q) # outcome recorded in this test, key = C=C1C(=CC=C2CCC[C@@]3(C)[C@@H]2CC[C@H]3[C@H](C)CCCC(C)C)C[C@@H](O)C[C@@H]1O
(A) inactive

(Q) # outcome recorded in this test, key = CCCCC(CC)COC(=O)CC(C(=O)OCC(CC)CCCC)S(=O)(=O)O (centres undefined)
(A) inactive

(Q) # outcome recorded in this test, key = O=C(Nc1ccc(Br)cc1)c1cc(Br)c(Br)s1
(A) active

(Q) # outcome recorded in this test, key = Cc1ccccc1OCC(O)CNCCOc1ccc(C(N)=O)cc1 (centres undefined)
(A) inactive

(Q) # outcome recorded in this test, key = COC(C(=O)C(O)C(C)O)C1Cc2cc3cc(OC4CC(OC5CC(O)C(O)C(C)O5)C(O)C(C)O4)c(C)c(O)c3c(O)c2C(=O)C1OC1CC(OC2CC(OC3CC(C)(O)C(O)C(C)O3)C(O)C(C)O2)C(O)C(C)O1 (centres undefined)
(A) active

(Q) # outcome recorded in this test, key = CC1=C(/C=C/C(C)=C/C=C/C(C)=C/C=C/C=C(C)/C=C/C=C(C)/C=C/C2=C(C)C(=O)CCC2(C)C)C(C)(C)CCC1=O
(A) inactive

(Q) # outcome recorded in this test, key = CC1(C)C(C=C(Cl)Cl)C1C(=O)OCc1cccc(Oc2ccccc2)c1 (centres undefined)
(A) inactive

(Q) # outcome recorded in this test, key = O=C(COc1ccc(Cl)cc1)OCCNC12CC3CC(CC(C3)C1)C2
(A) inactive

(Q) # outcome recorded in this test, key = C[C@@H]1CCC2[C@@H](C)[C@@H](O)O[C@@H]3O[C@@]4(C)CC[C@@H]1[C@@]23OO4 (some centres undefined)
(A) active

(Q) # outcome recorded in this test, key = CCCCC(C)(O)C/C=C/[C@H]1[C@H](O)CC(=O)[C@@H]1CCCCCCC(=O)OC (some centres undefined)
(A) inactive

(Q) # outcome recorded in this test, key = O=C(O)CCC(=O)C(=O)O
(A) inactive

(Q) # outcome recorded in this test, key = COC(=O)CCC(=O)CN
(A) inactive

(Q) # outcome recorded in this test, key = CCCCCCCC/C=C\CCCCCCCC(=O)O
(A) inactive

(Q) # outcome recorded in this test, key = CC1(C)S[C@@H]2[C@H](NC(=O)[C@@H](NC(=O)N3CCNC3=O)c3ccccc3)C(=O)N2[C@H]1C(=O)O
(A) inactive

(Q) # outcome recorded in this test, key = CCOc1ccc(N=Nc2ccc(N)cc2N)cc1
(A) inactive

(Q) # outcome recorded in this test, key = CC1=CCC(C(C)(C)O)CC1 (centres undefined)
(A) inactive
